Experiment: drug combination growth inhibition, ovarian cancer – cell-based, oncology-focused library, rucaparib conditional, profiling panel (AID 1508598)
Conditions: patient-derived ovarian cancer cells, CellTiter-Glo viability, 144 h; at 5 µM; OCI-P5x cells; without rucaparib
Active and inactive are the calls of the source.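 Rule for the calls: active = normalized viability below 100% at a tested concentration; inactive = the rest.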
Outcome codes: active, inactive

COMPOUND: C[C@@H](Oc1cc(-n2cnc3ccc(CN4CCN(C)CC4)cc32)sc1C(N)=O)c1ccccc1C(F)(F)F
ASSIGNED_LABEL: active

COMPOUND: CC[C@H](Nc1ncnc2nc[nH]c12)c1nc2cccc(F)c2c(=O)n1-c1ccccc1
ASSIGNED_LABEL: inactive

COMPOUND: Cc1nc2c(-c3cnc(N)nc3)nc(N3CCOCC3)nc2n1C(C)C
ASSIGNED_LABEL: active

COMPOUND: COc1cc2nccc(Oc3ccc(NC(=O)C4(C(=O)Nc5ccc(F)cc5)CC4)cc3)c2cc1OC
ASSIGNED_LABEL: active

COMPOUND: COc1ccc(-c2ccc3c(N4CCOC[C@@H]4C)nc(N4CCOC[C@@H]4C)nc3n2)cc1CO
ASSIGNED_LABEL: active

COMPOUND: COc1ccc(C2=NC(c3ccc(Cl)cc3)C(c3ccc(Cl)cc3)N2C(=O)N2CCNC(=O)C2)c(OC(C)C)c1 (stereo unspecified)
ASSIGNED_LABEL: active

COMPOUND: O=C(O)[C@H](Cc1c[nH]c2ccccc12)N1C(=O)c2ccccc2C1=O
ASSIGNED_LABEL: inactive

COMPOUND: CO[C@@H](C(=O)N1Cc2[nH]nc(NC(=O)c3ccc(N4CCN(C)CC4)cc3)c2C1)c1ccccc1
ASSIGNED_LABEL: active

COMPOUND: Cc1ccc2c(=O)c3cccc(CC(=O)O)c3oc2c1C
ASSIGNED_LABEL: inactive

COMPOUND: CC(C)(C)Cn1c(N)nc2ccc(-c3[nH]c(C(C)(C)C)nc3-c3ccc(F)cc3)nc21
ASSIGNED_LABEL: active

COMPOUND: CC(C)c1cc(-c2n[nH]c(=O)n2-c2ccc3c(ccn3C)c2)c(O)cc1O
ASSIGNED_LABEL: active

COMPOUND: Cc1cnc(Nc2ccc(OCCN3CCCC3)cc2)nc1Nc1cccc(S(=O)(=O)NC(C)(C)C)c1
ASSIGNED_LABEL: active

COMPOUND: Cc1ccc(NC(=O)c2cccc(C(C)(C)C#N)c2)cc1Nc1ccc2ncn(C)c(=O)c2c1
ASSIGNED_LABEL: active

COMPOUND: CC(C)C[C@H](NC(=O)CNC(=O)c1cc(Cl)ccc1Cl)B1OC(=O)CC(CC(=O)O)(C(=O)O)O1 (stereo partly specified)
ASSIGNED_LABEL: active

COMPOUND: CCCS(=O)(=O)Nc1ccc(F)c(C(=O)c2c[nH]c3ncc(-c4ccc(Cl)cc4)cc23)c1F
ASSIGNED_LABEL: active

COMPOUND: Nc1ccccc1NC(=O)c1ccc(CNc2nccc(-c3cccnc3)n2)cc1
ASSIGNED_LABEL: active

COMPOUND: c1ccc2c(CCNc3ccc(Nc4ccncc4)cc3)c[nH]c2c1
ASSIGNED_LABEL: active

COMPOUND: Cc1ccc(C(=O)N(CCCN)[C@@H](c2nc3cc(Cl)ccc3c(=O)n2Cc2ccccc2)C(C)C)cc1
ASSIGNED_LABEL: active

COMPOUND: Cc1cc2c(F)c(Oc3ncnn4cc(OC[C@@H](C)O)c(C)c34)ccc2[nH]1
ASSIGNED_LABEL: active

COMPOUND: CNc1nc(-c2ccc3c(N)n[nH]c3c2)cc(N2C[C@@H](C(=O)NC3CCCCC3)CC[C@H]2C)n1
ASSIGNED_LABEL: active

COMPOUND: O=S(=O)(O)CCSSCCS(=O)(=O)O
ASSIGNED_LABEL: active

----------
Each entry below carries its recorded viability.
Assay: drug combination growth inhibition, ovarian cancer – cell-based, oncology-focused library, rucaparib conditional, profiling panel (AID 1508598)
Details: patient-derived ovarian cancer cells, CellTiter-Glo viability, 144 h; at 0.0195 µM; OCI-C5x cells; with rucaparib 10 µM; hits give low values; 100% = cells with rucaparib alone
The source made the active and inactive calls.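 Rule for the calls: active = normalized viability below 100% at a tested concentration; inactive = the rest.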

COMPOUND: Cc1ccc(-c2csc(NC(=O)c3ccccc3)n2)c(C)c1
viability: 115% (inactive)
//
COMPOUND: CCN(CCO)CCCOc1ccc2c(Nc3cc(CC(=O)Nc4cccc(F)c4)[nH]n3)ncnc2c1
viability: 109% (inactive)
//
COMPOUND: Cc1csc(-c2nnc(Nc3ccc(Oc4ncccc4-c4ccnc(N)n4)cc3)c3ccccc23)c1
viability: 78.2% (active)
//
COMPOUND: COc1ccc(COc2cc3oc(=O)c4cc(C(C)O)ccc4c3cc2OC)cc1 (centres undefined)
viability: 118% (inactive)
//
COMPOUND: CC[C@H](Nc1ncnc2nc[nH]c12)c1nc2cccc(F)c2c(=O)n1-c1ccccc1
viability: 101% (inactive)
//
COMPOUND: Cc1cccc(-c2[nH]c(C(C)(C)C)nc2-c2ccc3nccnc3c2)n1
viability: 119% (inactive)
//
COMPOUND: CCn1c(-c2nonc2N)nc2c(C#CC(C)(C)O)ncc(OC[C@H]3CCCNC3)c21
viability: 118% (inactive)
//
COMPOUND: CO[C@@H](C(=O)N1Cc2[nH]nc(NC(=O)c3ccc(N4CCN(C)CC4)cc3)c2C1)c1ccccc1
viability: 96.4% (active)
//
COMPOUND: NC1(c2ccc(-c3nc4ccn5c(=O)[nH]nc5c4cc3-c3ccccc3)cc2)CCC1
viability: 110% (inactive)

----------
Experiment: drug combination growth inhibition, ovarian cancer – cell-based, oncology-focused library, rucaparib conditional, profiling panel (AID 1508598)
Conditions: patient-derived ovarian cancer cells, CellTiter-Glo viability, 144 h; at 0.0781 µM; OCI-P5x cells; with rucaparib 20 µM; 100% = cells with rucaparib alone
Calls of active or inactive are those of the source.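 Rule for the calls: active = normalized viability below 100% at a tested concentration; inactive = the rest.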
Outcome codes: active, inactive

TEST_SMILES: C=CC(=O)Nc1cc(Nc2nccc(-c3cn(C)c4ccccc34)n2)c(OC)cc1N(C)CCN(C)C
ASSIGNED_LABEL: inactive
//
TEST_SMILES: O=C(NOC[C@H](O)CO)c1ccc(F)c(F)c1Nc1ccc(I)cc1F
ASSIGNED_LABEL: active
//
TEST_SMILES: Cn1cncc1[C@@](N)(c1ccc(Cl)cc1)c1ccc2c(c1)c(-c1cccc(Cl)c1)cc(=O)n2C
ASSIGNED_LABEL: active
//
TEST_SMILES: O=C(NCCCNc1nc(Nc2cccc(NC(=O)N3CCCC3)c2)ncc1I)c1cccs1
ASSIGNED_LABEL: active
//
TEST_SMILES: CC(C)OC(=O)C1=CN(C(=O)c2ccc(F)c(F)c2)CC(C)(C)c2c1[nH]c1ccccc21
ASSIGNED_LABEL: inactive
//
TEST_SMILES: Cc1cnc(Nc2ccc(OCCN3CCCC3)cc2)nc1Nc1cccc(S(=O)(=O)NC(C)(C)C)c1
ASSIGNED_LABEL: active
//
TEST_SMILES: C=CCn1c(=O)c2cnc(Nc3ccc(N4CCN(C)CC4)cc3)nc2n1-c1cccc(C(C)(C)O)n1
ASSIGNED_LABEL: active
//
TEST_SMILES: CC(C)CC(=O)Nc1n[nH]c2c1CN(C(=O)C1CCN(C)CC1)C2(C)C
ASSIGNED_LABEL: inactive
//
TEST_SMILES: Cc1ccc(C(=O)Nc2ccc(CN3CCN(C)CC3)c(C(F)(F)F)c2)cc1C#Cc1cnc2cccnn12
ASSIGNED_LABEL: active

----------
Assay: viability loss with induced miR-34 in A549 – imaging, A549 dox-inducible miR-34, nuclei and caspase counts, primary screen (AID 1347080)
Settings: A549 miR-34 inducible, Hoechst nuclei count, 48 h; hits give low values; cell number ratio, induced over uninduced
Consider the cut-off 0.9. If the recorded fold change is strictly smaller, the label is satisfied; if not, the label is not satisfied.

COMPOUND: CCCCC[C@@H](O)CC[C@H]1[C@H](O)CC(=O)[C@@H]1CCCCCCC(=O)O
ASSIGNED_LABEL: not satisfied
--
COMPOUND: CCC(=O)NC1Cc2ccccc2C(c2ccccc2)C1 (stereo not drawn)
ASSIGNED_LABEL: not satisfied
--
COMPOUND: N#C/C(=C\c1ccc(O)c(O)c1)C(=O)NCCCCc1ccccc1
ASSIGNED_LABEL: not satisfied
--
COMPOUND: CCCCCC(=O)CC[C@@H]1[C@@H](C/C=C\CCCC(=O)OC(C)C)[C@@H](O)C[C@H]1O
ASSIGNED_LABEL: not satisfied
--
COMPOUND: Cc1cc(C(C)Nc2ccccc2)c2nc(N3CCOCC3)cc(=O)n2c1 (stereo not drawn)
ASSIGNED_LABEL: satisfied
--
COMPOUND: NC(N)=Nc1ccc(Cl)cc1
ASSIGNED_LABEL: not satisfied
--
COMPOUND: CN(C)c1ccc(-c2nc3ncc(Cl)c(N4CCN(CC(=O)Nc5nccs5)CC4)c3[nH]2)cc1
ASSIGNED_LABEL: not satisfied
--
COMPOUND: CCCCC[C@H](O)/C=C/[C@@H]1[C@H]2CC(CCCCC(=O)O)O[C@H]2C[C@H]1O (stereo partly drawn)
ASSIGNED_LABEL: not satisfied
--
COMPOUND: COc1ccc(C2CC(c3c(O)cc(C)oc3=O)=NCCS2)c(OC)c1 (stereo not drawn)
ASSIGNED_LABEL: not satisfied
--
COMPOUND: CCCCCC(=O)/C=C/C=O
ASSIGNED_LABEL: not satisfied
--
COMPOUND: CCCCCC/C=C\CCCCCCCCCCOC(C)=O
ASSIGNED_LABEL: not satisfied
--
COMPOUND: COc1ccc(-c2cnc3c(-c4cccc5ncccc45)cnn3c2)cc1
ASSIGNED_LABEL: satisfied
--
COMPOUND: C#CCOc1ccccc1CCCCCC(=O)O
ASSIGNED_LABEL: not satisfied
--
COMPOUND: O=c1cc(N2CCOCC2)oc2c1ccc1ccccc12
ASSIGNED_LABEL: not satisfied
--
COMPOUND: CCCCCCCCCCCCCCCCOC[C@H](COP(=O)([O-])OCC[N+](C)(C)C)SC(=O)CCCCCC
ASSIGNED_LABEL: not satisfied
--
COMPOUND: CCCOCCCCCCCCCC(=O)O
ASSIGNED_LABEL: not satisfied
--
COMPOUND: C=CCn1c(=O)c2cnc(Nc3ccc(N4CCN(C)CC4)cc3)nc2n1-c1cccc(C(C)(C)O)n1
ASSIGNED_LABEL: not satisfied
--
COMPOUND: Nc1nccc(Oc2ccc(NC(=O)c3c[nH]cc(-c4ccc(F)cc4)c3=O)cc2F)c1Cl
ASSIGNED_LABEL: not satisfied
--
COMPOUND: C/C=C1/C(=O)C[C@H]2[C@@H]3CCC4=CC(=O)CC[C@]4(C)[C@H]3CC[C@]12C
ASSIGNED_LABEL: satisfied
--
COMPOUND: O=C(O)CCC/C=C\C[C@@H]1[C@@H](/C=C/[C@@H](O)C2Cc3ccccc3C2)[C@@H](F)C[C@@H]1O
ASSIGNED_LABEL: satisfied
--
COMPOUND: CN(C)CCC1(c2ccc(Cl)cc2)Cc2ccccc2C(=O)O1 (stereo not drawn)
ASSIGNED_LABEL: not satisfied
--
COMPOUND: CCCCC[C@H](O)/C=C/[C@H]1[C@H](O)CC(=O)[C@@H]1C/C=C\CCCC(=O)OCC(O)CO (stereo partly drawn)
ASSIGNED_LABEL: not satisfied
--
COMPOUND: CCCCC[C@H](O)/C=C/[C@H]1CC[C@H](O)[C@@H]1CCCCCCC(=O)O
ASSIGNED_LABEL: not satisfied
--
COMPOUND: CCCCCCCC/C=C/CCCCCCCC(=O)O
ASSIGNED_LABEL: not satisfied
--
COMPOUND: CNC(=O)Oc1ccc2c(c1)C1(C)CCN(C)C1N2C (stereo not drawn)
ASSIGNED_LABEL: not satisfied
--
COMPOUND: Cc1cccc(-c2[nH]c(C(C)(C)C)nc2-c2ccc3c(c2)OCO3)n1
ASSIGNED_LABEL: not satisfied
--
COMPOUND: CC1(C)CNc2cc(NC(=O)c3cccnc3NCc3ccncc3)ccc21
ASSIGNED_LABEL: not satisfied
--
COMPOUND: O=C(Nc1nc2ccccc2n1CCN1CCOCC1)c1cccc([N+](=O)[O-])c1
ASSIGNED_LABEL: satisfied
--
COMPOUND: BrC1C(Br)C(Br)C(Br)C(Br)C1Br (stereo not drawn)
ASSIGNED_LABEL: not satisfied
--
COMPOUND: CCN(CC)CCn1c(=O)c(Cc2ccc(OC)cc2)nc2ccccc21
ASSIGNED_LABEL: not satisfied
--
COMPOUND: CC#CCOC(=O)C1=CCCN(C)C1
ASSIGNED_LABEL: not satisfied
--
COMPOUND: O=C(O)c1ccc(/C=C2/SC(=S)N(c3cccc(C(F)(F)F)c3)C2=O)cc1
ASSIGNED_LABEL: satisfied
--
COMPOUND: CC(C)(C)OC(=O)N1CCC(OCc2nc(-c3ccncc3)no2)CC1
ASSIGNED_LABEL: not satisfied
--
COMPOUND: O=C1OC2(c3ccc(O)cc3Oc3cc(Oc4ccc(O)cc4)ccc32)c2ccccc21 (stereo not drawn)
ASSIGNED_LABEL: not satisfied
--
COMPOUND: C=CC(=O)Nc1cccc(Nc2nc(Nc3ccc(OCCOC)cc3)ncc2F)c1
ASSIGNED_LABEL: not satisfied
--
COMPOUND: CCOC(=O)c1ccc(N=Nc2ccc(O)c(CC(=O)O)c2)cc1
ASSIGNED_LABEL: not satisfied
--
COMPOUND: O=S(=O)(NO)c1ccccc1
ASSIGNED_LABEL: not satisfied
